target: CDK2 (Homo sapiens); construct: host or cells: HEK293; assay: CDK2 HIBIT PQ (protein quantification), degradation; type: cell-based; conditions: Max = Maximum

| compound | system tested | CDK2 HIBIT PQ Max (%) |
| --- | --- | --- |
| CC(C)Oc1c(-c2cn[nH]c2)ncn2nc(Nc3ccc(S(=O)(=O)N(C)CCCN4CCC(c5cccc6c(N7CCC(=O)NC7=O)nn(C)c56)CC4)cc3F)nc12 | CDK2 (Homo sapiens) | 94 |
| CC(C)Oc1c(-c2cn[nH]c2)ncn2nc(Nc3ccc(S(=O)(=O)c4cccc(CN5CCN(c6ccc7c(N8CCC(=O)NC8=O)nn(C)c7c6)CC5C(C)C)c4)cc3F)nc12 (racemic) [Compound 42] | CDK2 (Homo sapiens) | 95 |
| CC(C)Oc1c(-c2cn[nH]c2)ncn2nc(Nc3ccc(S(=O)(=O)c4cccc(CN5CCN(c6ccc7c(N8CCC(=O)NC8=O)nn(C)c7c6)C(C(C)C)C5)c4)cc3F)nc12 (racemic) | CDK2 (Homo sapiens) | 94 |
